Attribution: ChEMBL document CHEMBL4346668

Parameter Activity: see the listing below.
Test system: A549
Assay: Effect on VEGFR2 in human A549 cells assessed as total VEGFR2 level at 100 uM incubated for 24 hrs by flow cytometric analysis relative to control
Assay type: functional
I only need the number, in %, no unit after it.

Known Activity results, listed for orientation:
>>> result_number("COc1ccc(Cc2cn(CCNC(=O)Nc3cccc(Cl)c3)nn2)cc1")
86
>>> result_number("CNC(=O)c1cc(Oc2ccc(NC(=O)Nc3ccc(Cl)c(C(F)(F)F)c3)cc2)ccn1")
85
>>> result_number("COc1ccc(Cc2cn(CCNC(=O)Nc3cccc(Br)c3)nn2)cc1")
80

Proceeding to the next molecule to report its Activity.
Identify measured Activity corresponding to COc1ccc(Cc2cn(CCNC(=O)Nc3ccc(Br)cc3)nn2)cc1
61

* * *

ΔTm values recorded for Vascular endothelial growth factor receptor 2 (Homo sapiens) (UniProt P35968)
State the value, then name its unit.

Known ΔTm results, listed for orientation:
>>> result("COc1ccc(/C=C/c2cccc(NC(=O)Nc3ccccc3Cl)c2)cc1")
"10.2 °C"
>>> result("COc1ccc(Cc2cn(CCNC(=O)Nc3ccccc3)nn2)cc1")
"10.5 °C"

Proceeding to the next compound to report its ΔTm.
Return reported ΔTm for target or system Vascular endothelial growth factor receptor 2 (Homo sapiens) (UniProt P35968), item COc1ccc(Cc2cn(CCNC(=O)Nc3cccc(Cl)c3)nn2)cc1 .
7.34 °C

* * *

Parameter pIC50: see the listing below.
Tested on: A549
Test: Antiproliferative activity against human A549 cells incubated for 2 days by MTT assay
Assay type: functional, cell-based
Details: A549, 48 h
Give only the number. pIC50 is defined as minus log10 of concentration in molar units.

Known pIC50 results, listed for orientation:
>>> result_number("COc1ccc(/C=C/c2cccc(NC(=O)Nc3cccc(Cl)c3)c2)cc1")
5.11
>>> result_number("COc1ccc(/C=C\\c2cccc(NC(=O)Nc3ccc(Cl)cc3)c2)cc1")
4.54
>>> result_number("CNC(=O)c1cc(Oc2ccc(NC(=O)Nc3ccc(Cl)c(C(F)(F)F)c3)cc2)ccn1")
4.57
>>> result_number("Cc1c(COc2ccc(CN3CCCCC3C(=O)O)cc2Br)cccc1-c1ccccc1 (stereo not given)")
5.22
>>> result_number("COc1ccc(/C=C\\c2cccc(NC(=O)Nc3cccc(Cl)c3)c2)cc1")
4.42

Proceeding to the next compound to report its pIC50.
Identify measured pIC50 corresponding to COc1ccc(CCc2cccc(NC(=O)Nc3ccccc3Cl)c2)cc1
4.62

* * *

ΔTm values recorded for Vascular endothelial growth factor receptor 2 (Homo sapiens)
I only need the number, in °C, no unit after it.

>>> result_number("COc1ccc(CCc2cccc(NC(=O)Nc3ccc(Cl)cc3)c2)cc1")
10.2
>>> result_number("COc1ccc(CCc2cccc(NC(=O)Nc3ccccc3Cl)c2)cc1")
16.2
>>> result_number("COc1ccc(Cc2cn(CCNC(=O)Nc3ccc(Cl)cc3)nn2)cc1")
5.09

Return reported ΔTm for target or system Vascular endothelial growth factor receptor 2 (Homo sapiens), item COc1ccc(Cc2cn(CCNC(=O)Nc3cccc(C)c3)nn2)cc1 .
5.21

Return reported ΔTm for target or system Vascular endothelial growth factor receptor 2 (Homo sapiens), item COc1ccc(Cc2cn(CCNC(=O)Nc3ccc(Br)cc3)nn2)cc1 .
2.61

Return reported ΔTm for target or system Vascular endothelial growth factor receptor 2 (Homo sapiens), item COc1ccc(/C=C/c2cccc(NC(=O)Nc3ccc(Cl)cc3)c2)cc1 .
6.25

Return reported ΔTm for target or system Vascular endothelial growth factor receptor 2 (Homo sapiens), item COc1ccc(Cc2cn(CCNC(=O)Nc3ccccc3C)nn2)cc1 .
9.98

Return reported ΔTm for target or system Vascular endothelial growth factor receptor 2 (Homo sapiens), item COc1ccc(CCc2cccc(NC(=O)Nc3cccc(Cl)c3)c2)cc1 .
4.1

Return reported ΔTm for target or system Vascular endothelial growth factor receptor 2 (Homo sapiens), item COc1ccc(Cc2cn(CCNC(=O)Nc3ccc(C)cc3)nn2)cc1 .
3.68

Return reported ΔTm for target or system Vascular endothelial growth factor receptor 2 (Homo sapiens), item COc1ccc(/C=C/c2cccc(NC(=O)Nc3cccc(Cl)c3)c2)cc1 .
8.35

Return reported ΔTm for target or system Vascular endothelial growth factor receptor 2 (Homo sapiens), item COc1ccc(Cc2cn(CCNC(=O)Nc3cccc(Br)c3)nn2)cc1 .
7.34

* * *

Parameter pIC50: see the listing below.
Test system: A549
Assay: Antiproliferative activity against human A549 cells incubated for 2 days by MTT assay
Format: functional, cell-based
Details: A549, 48 h
pIC50: −log10 of the molar value.

>>> result("COc1ccc(Cc2cn(CCNC(=O)Nc3cccc(Cl)c3)nn2)cc1")
"< 3.70"

Identify measured pIC50 corresponding to COc1ccc(Cc2cn(CCNC(=O)Nc3ccc(Br)cc3)nn2)cc1
< 3.70

Identify measured pIC50 corresponding to COc1ccc(CCc2cccc(NC(=O)Nc3ccc(Cl)cc3)c2)cc1
< 3.70

Identify measured pIC50 corresponding to COc1ccc(/C=C\c2cccc(NC(=O)Nc3ccccc3Cl)c2)cc1
4.68

* * *

Tested on: HMEC-1
Experiment: Antiproliferative activity against HMEC1 cells incubated for 2 days by MTT assay
Assay type: cell-based
Conditions: Homo sapiens, HMEC-1, 48 h
Parameter pIC50: see the listing below.
Give only the number. pIC50 is defined as minus log10 of concentration in molar units.

Identify measured pIC50 corresponding to COc1ccc(/C=C\c2cccc(NC(=O)Nc3cccc(Cl)c3)c2)cc1
4.48

Identify measured pIC50 corresponding to CCN(CC)CCNC(=O)c1c(C)[nH]c(/C=C2\C(=O)Nc3ccc(F)cc32)c1C
5.15

Identify measured pIC50 corresponding to COc1ccc(CCc2cccc(NC(=O)Nc3cccc(Cl)c3)c2)cc1
4.30

* * *

Target: Programmed cell death 1 ligand 1 (Homo sapiens)
Experiment: Binding affinity to PDL1 (unknown origin) assessed as change in melting temperature at 100 uM by fluorescence based real time RT-PCR analysis
Readout Type: ΔTm (°C)
I only need the number, in °C, no unit after it.

Known ΔTm results, listed for orientation:
>>> result_number("COc1ccc(/C=C/c2cccc(NC(=O)Nc3ccc(Cl)cc3)c2)cc1")
1.18
>>> result_number("Cc1c(COc2ccc(CN3CCCCC3C(=O)O)cc2Br)cccc1-c1ccccc1 (stereo not given)")
3.68
>>> result_number("COc1ccc(Cc2cn(CCNC(=O)Nc3cccc(C)c3)nn2)cc1")
2.55
>>> result_number("COc1ccc(CCc2cccc(NC(=O)Nc3cccc(Cl)c3)c2)cc1")
5.2
>>> result_number("COc1ccc(Cc2cn(CCNC(=O)Nc3ccc(C)cc3)nn2)cc1")
3.09
>>> result_number("COc1ccc(CCc2cccc(NC(=O)Nc3ccccc3Cl)c2)cc1")
2.25

Return reported ΔTm for target or system Programmed cell death 1 ligand 1 (Homo sapiens), item COc1ccc(CCc2cccc(NC(=O)Nc3ccc(Cl)cc3)c2)cc1 .
2.27

Return reported ΔTm for target or system Programmed cell death 1 ligand 1 (Homo sapiens), item COc1ccc(Cc2cn(CCNC(=O)Nc3cccc(Br)c3)nn2)cc1 .
0.79

Return reported ΔTm for target or system Programmed cell death 1 ligand 1 (Homo sapiens), item COc1ccc(/C=C/c2cccc(NC(=O)Nc3ccccc3Cl)c2)cc1 .
5.09

* * *

Tested on: A549
Assay: Immunomodulatory activity in human A549 cells assessed as reduction in PD-L1 expression level at 100 uM incubated for 24 hrs by ELISA relative to control
Type: functional
Set-up: scale not given: the % may be the effect or the level left
Parameter Activity: see the listing below.

Known Activity results, listed for orientation:
>>> result("COc1ccc(Cc2cn(CCNC(=O)Nc3ccc(Br)cc3)nn2)cc1")
">100%"
>>> result("COc1ccc(Cc2cn(CCNC(=O)Nc3ccc(Cl)cc3)nn2)cc1")
"69%"
>>> result("COc1ccc(/C=C/c2cccc(NC(=O)Nc3ccc(Cl)cc3)c2)cc1")
"25%"

Identify measured Activity corresponding to Cc1c(COc2ccc(CN3CCCCC3C(=O)O)cc2Br)cccc1-c1ccccc1 (stereo not drawn)
68%

Identify measured Activity corresponding to COc1ccc(/C=C/c2cccc(NC(=O)Nc3ccccc3Cl)c2)cc1
74%

Identify measured Activity corresponding to COc1ccc(Cc2cn(CCNC(=O)Nc3cccc(Cl)c3)nn2)cc1
70%

Identify measured Activity corresponding to COc1ccc(CCc2cccc(NC(=O)Nc3ccc(Cl)cc3)c2)cc1
38%

Identify measured Activity corresponding to COc1ccc(CCc2cccc(NC(=O)Nc3ccccc3Cl)c2)cc1
61%

Identify measured Activity corresponding to COc1ccc(/C=C\c2cccc(NC(=O)Nc3ccc(Cl)cc3)c2)cc1
75%

Identify measured Activity corresponding to COc1ccc(/C=C\c2cccc(NC(=O)Nc3ccccc3Cl)c2)cc1
83%

* * *

Tested on: A549
Assay: Antiproliferative activity against human A549 cells incubated for 2 days by MTT assay
Type: functional, cell-based
Settings: A549, 48 h
Readout Type: pIC50
Give only the number. pIC50 is defined as minus log10 of concentration in molar units.

Known pIC50 results, listed for orientation:
>>> result_number("CCN(CC)CCNC(=O)c1c(C)[nH]c(/C=C2\\C(=O)Nc3ccc(F)cc32)c1C")
4.96
>>> result_number("COc1ccc(/C=C/c2cccc(NC(=O)Nc3ccc(Cl)cc3)c2)cc1")
5.82

Proceeding to the next compound to report its pIC50.
Identify measured pIC50 corresponding to COc1ccc(/C=C/c2cccc(NC(=O)Nc3ccccc3Cl)c2)cc1
4.21
